A collection of binders and their measured IC50
Target: HLA-DRB1*01:01 (plate-bound, peptide-binding assays) (human)
Test: competition peptide-binding assay on plates
Square brackets hold non-standard residues; d marks the D form. Ends that are not written are not given here. Cit = NC(=O)NCCC[C@H](N)C(=O)O

[
  {
    "binder": "KRIAKAVNEKSCNCL [α-enolase peptide 326 (residues 326–340), native]",
    "experimental-value": "> 50 µM"
  },
  {
    "binder": "KAKFAG[Cit]NF[Cit]NPLAK [α-enolase peptide Cit420 (residues 420–434), citrullinated]",
    "experimental-value": "> 50 µM"
  }
]

Prompt: Requested read-out: IC50. Entry: K[Cit]IAKAVNEKSCNCL (cysteine pairing not given here) [α-enolase peptide Cit326 (residues 326–340), citrullinated]
Completion: > 50 µM

Entry source: paper PMC5108039
